- Test system: human primary Keratinocytes
- experiment-notes: Residual DNA damage (dsDNA breaks) after UVB, Keratinocytes
- Format: cell-based
- condition-details: 24 hr after UVB exposure, EC100 or EC100 equivalent combinations

[
  {
    "compound": "Oc1c(I)cc(Cl)c2cccnc12",
    "amount of dsDNA breaks": "significantly reduced"
  },
  {
    "compound": "NC(=O)c1ccccn1 [Picolinamide]",
    "amount of dsDNA breaks": "significantly reduced"
  },
  {
    "compound": "Oc1ccc(/C=C/c2cc(O)cc(O)c2)cc1 [Resveratrol, 3,5,4′-trihydroxystilbene]",
    "amount of dsDNA breaks": "significantly reduced"
  },
  {
    "compound": "COc1ccc2[nH]cc(CCNC(C)=O)c2c1",
    "amount of dsDNA breaks": "significantly reduced"
  }
]
